Cited source for all entries: patent US20040077674A1

- Study Target: RNA-dependent DNA polymerase activity of HIV reverse transcriptase (Human immunodeficiency virus type 1 group M subtype B, UniProt P03366)
- Construct: made in house
- Assay: RNA-dependent DNA polymerase activity assay of HIV reverse transcriptase
- Assay type: biochemical, HIV-1
- Run Parameters: 10 μM inhibitor concentration; activity in presence / in absence of analog x 100
Recorded Residual activity (%) Polymerase by entry

Molecule | Uom | Residual activity (%) Polymerase
Cc1ccc2nc3c(c(-c4ccccc4)c2c1)Cn1c-3cc(C(O)Cc2ccccc2)c(C)c1=O (centres unmarked) | % | 76
CCCCCCc1c2c(nc3ccc(OC)cc13)-c1cc(C(O)C(C)(C)C)c(C)c(=O)n1C2 (centres unmarked) | % | 68
Cc1ccc2nc3c(c(-c4ccccc4)c2c1)Cn1c-3cc(C(O)C(C)(C)C)c(C)c1=O (centres unmarked) | % | 70
CCCCCCc1c2c(nc3ccc(F)cc13)-c1cc(C(=O)C(C)(C)C)c(C)c(=O)n1C2 | % | 44
Cc1c(C(=O)CCC2CCCCC2)cc2n(c1=O)Cc1c-2nc2ccccc2c1[Si](C)(C)C(C)(C)C | % | 39
Cc1c(C(=O)CCC2CCCCC2)cc2n(c1=O)Cc1c-2nc2ccccc2c1[Si](C)(C)C | % | 90
COc1ccc2nc3c(c([Si](C)(C)C)c2c1)Cn1c-3cc(C(=O)C(C)(C)C)c(C)c1=O | % | 64
CCC(=O)c1cc2n(c(=O)c1C)Cc1c-2nc2ccc(C)cc2c1-c1ccccc1 | % | 71
